target: T1, Human CD3 on Human CD3+ Jurkat cells (human, UniProt P07766 23-207); assay: cell binding, human CD3+ Jurkat cells
T1 construct: whole, on cells; CD3 complex on cells; also called hCD3
T1 sequence (P07766 23-207): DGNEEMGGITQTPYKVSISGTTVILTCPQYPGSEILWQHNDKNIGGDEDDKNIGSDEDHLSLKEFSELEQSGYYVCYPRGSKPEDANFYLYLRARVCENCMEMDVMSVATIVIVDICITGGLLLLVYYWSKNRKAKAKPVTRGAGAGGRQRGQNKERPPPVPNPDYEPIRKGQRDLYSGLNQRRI
value_type: Cell Binding Fold Over Background (FOB)
Answers are plain numbers, in FOB.

Before answering, review these 3 worked examples.
>>> reported_value("ADI-46357 (antibody, V domains shown, also called Ab30) VH: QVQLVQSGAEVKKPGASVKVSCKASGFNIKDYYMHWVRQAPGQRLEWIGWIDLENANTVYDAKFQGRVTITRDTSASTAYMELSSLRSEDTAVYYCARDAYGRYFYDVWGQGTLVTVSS VL: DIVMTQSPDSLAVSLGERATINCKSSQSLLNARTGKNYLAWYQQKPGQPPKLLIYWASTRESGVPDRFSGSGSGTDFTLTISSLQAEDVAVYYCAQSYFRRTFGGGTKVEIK")
13
>>> reported_value("ADI-42594 (antibody, V domains shown, also called Ab1) VH: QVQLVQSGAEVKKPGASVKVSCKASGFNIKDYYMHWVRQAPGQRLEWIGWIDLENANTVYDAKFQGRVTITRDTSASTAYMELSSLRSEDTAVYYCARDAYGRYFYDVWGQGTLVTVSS VL: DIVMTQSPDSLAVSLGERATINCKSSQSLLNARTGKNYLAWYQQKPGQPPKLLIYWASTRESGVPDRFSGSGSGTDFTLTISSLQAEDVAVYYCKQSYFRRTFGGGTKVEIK")
14
>>> reported_value("ADI-46378 (antibody, V domains shown, also called Ab40) VH: QVQLVQSGAEVKKPGASVKVSCKASGFNIKDYYMHWVRQAPGQRLEWIGWIDLENANTVYDAKFQGRVTITRDTSASAAYMELSSLRSEDTAVYYCARDAYGRYFYDVWGQGTLVTVSS VL: DIVMTQSPDSLAVSLGERATINCKSSQSLLNARTRKNYLAWYQQKPGRPPKLLIYWASTRESGVPDRFSGSGSGTDFTLTISSLQAEDVAVYYCVQSYFRRTFGGGTKVEIK")
17

Give its Cell Binding Fold Over Background (FOB) value. Item: ADI-45959 (antibody, V domains shown, also called Ab13) VH: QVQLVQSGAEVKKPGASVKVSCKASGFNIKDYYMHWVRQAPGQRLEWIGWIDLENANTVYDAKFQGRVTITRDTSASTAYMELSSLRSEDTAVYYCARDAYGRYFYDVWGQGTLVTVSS VL: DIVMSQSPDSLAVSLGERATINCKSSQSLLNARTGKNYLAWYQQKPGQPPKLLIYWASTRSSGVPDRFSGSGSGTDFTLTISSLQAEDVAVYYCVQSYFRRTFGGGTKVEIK
18
